targetUnderTest: aryl hydrocarbon receptor (AhR) (Homo sapiens, UniProt P35869)
Construct: DRE-Luc HepG2 cells subcultured in a 225 cm^2 flask; endogenous in cells; host or cells: HepG2 (ATCC), stably transfected with the reporter hCYP1A1/pGL4.27 (DRE-Luc HepG2)
Sequence (P35869 11-848): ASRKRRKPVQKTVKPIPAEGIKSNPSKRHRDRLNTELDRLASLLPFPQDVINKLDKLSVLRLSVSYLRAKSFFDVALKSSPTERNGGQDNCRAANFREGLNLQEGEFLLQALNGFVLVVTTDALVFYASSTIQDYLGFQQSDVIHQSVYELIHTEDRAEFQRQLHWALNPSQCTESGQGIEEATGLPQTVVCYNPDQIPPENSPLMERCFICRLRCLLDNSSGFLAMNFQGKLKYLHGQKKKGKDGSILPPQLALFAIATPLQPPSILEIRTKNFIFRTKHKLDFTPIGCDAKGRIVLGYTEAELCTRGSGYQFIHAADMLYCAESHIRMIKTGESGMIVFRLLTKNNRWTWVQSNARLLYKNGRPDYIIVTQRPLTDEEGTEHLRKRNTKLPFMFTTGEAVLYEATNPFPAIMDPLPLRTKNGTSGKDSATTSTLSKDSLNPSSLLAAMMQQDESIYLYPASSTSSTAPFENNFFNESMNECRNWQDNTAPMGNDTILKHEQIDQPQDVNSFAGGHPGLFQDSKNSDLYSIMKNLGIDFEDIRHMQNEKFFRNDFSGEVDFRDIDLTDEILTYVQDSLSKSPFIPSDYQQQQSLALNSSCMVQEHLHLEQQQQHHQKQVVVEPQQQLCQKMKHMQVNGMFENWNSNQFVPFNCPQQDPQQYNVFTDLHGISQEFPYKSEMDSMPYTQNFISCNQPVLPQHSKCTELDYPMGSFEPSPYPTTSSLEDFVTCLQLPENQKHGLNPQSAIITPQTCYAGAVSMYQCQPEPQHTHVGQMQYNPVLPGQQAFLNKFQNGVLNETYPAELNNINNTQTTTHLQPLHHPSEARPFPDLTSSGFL
methodDescription: AhR reporter gene assay (aryl hydrocarbon receptor antagonist activity, DRE-Luc HepG2 cells, TCDD-stimulated luciferase)
Format: cell-based
So I've got a bunch of molecules here, and I need their IC50 values.
Give the value in nM but do not write nM after it.

Req: // map Cc1cncc(-c2nc(NCCc3ccc(O)c(-c4ccccc4)c3)c3nc4n(c3n2)C(C)(C)CO4)c1 to recorded IC50 (system: aryl hydrocarbon receptor (AhR) (Homo sapiens, UniProt P35869))
Resp: 9.8

Req: Try this molecule too: Fc1cncc(-c2nc(NCCc3c[nH]c4ccccc34)c3nc4n(c3n2)CCCS4)c1
Resp: 11

Req: Consider next the molecule CC1(C)COc2nc3c(NCCc4ccc(O)c(-c5ccccc5)c4)nc(-c4cncc(C#N)c4)nc3n21 in the same way.
Resp: 9.9

====

targetUnderTest: aryl hydrocarbon receptor (AhR) (Homo sapiens, UniProt P35869)
Construct: DRE-Luc HepG2 cells subcultured in a 225 cm^2 flask; endogenous in cells
methodDescription: AhR reporter gene assay (aryl hydrocarbon receptor antagonist activity, DRE-Luc HepG2 cells, TCDD-stimulated luciferase)
readoutType: log10(IC50) (log10 of the value in nM)
Reminder: these figures are log10 of reported IC50, in nM before transformation.

Req: Hi! What's the reported log10(IC50) for Cc1cncc(-c2nc(NCCc3ccc(O)c(-c4cccc(F)c4)c3)c3nc4n(c3n2)C(C)(C)CS4)c1 on aryl hydrocarbon receptor (AhR) (Homo sapiens, UniProt P35869)?
Resp: -0.46

Req: Check CC1(C)COc2nc3c(NCCc4c[nH]c5ccccc45)nc(-c4ccc5ncnn5c4)nc3n21 too.
Resp: 1.60

Req: Now give it for CC1(C)CSc2nc3c(NCCc4ccc(O)c(-c5cncc(C#N)c5)c4)nc(-c4cncc(F)c4)nc3n21 too.
Resp: 0.76

Req: For CC1(C)COc2nc3c(NCCc4ccc(O)c(-c5cccc(C#N)c5)c4)nc(-c4cncc(C#N)c4)nc3n21 then?
Resp: 0.40

Req: One more compound: C[C@@H]1CSc2nc3c(NCCc4ccc(O)c(-c5ccccc5F)c4)nc(-c4cncc(C#N)c4)nc3n21
Resp: 0.08

Req: For CC1(C)COc2nc3c(NCCc4ccc(O)c(-c5cccc(C#N)c5)c4)nc(-c4cncc(F)c4)nc3n21 then?
Resp: 0.36

Req: Subsequent entry: CC1(C)COc2nc3c(NCCc4ccc(O)c(-c5cccc(Cl)c5)c4)nc(-c4cncc(F)c4)nc3n21
Resp: 1.00

Req: What would you report for CC1(C)COc2nc3c(NCCc4ccc(O)c(-c5ccccc5)c4)nc(-c4cncc(F)c4)nc3n21 ?
Resp: 0.64

Req: Please give the result for CC1(C)COc2nc3c(NCCc4ccc(O)c(-c5cccc(C#N)c5)c4)nc(-c4ccnc(F)c4)nc3n21 too.
Resp: 0.76

Req: Field entry: CC1(C)COc2nc3c(NCCc4ccc(O)c(-c5cccc(F)c5)c4)nc(-c4cncc(C#N)c4)nc3n21
Resp: -0.15

Req: Now consider CC1(C)COc2nc3c(NCCc4ccc(O)c(-c5cc(F)ccc5F)c4)nc(-c4cncc(F)c4)nc3n21 and answer again.
Resp: 1.04

Req: Record: CC1(C)COc2nc3c(NCCc4ccc(O)c(-c5cc(C#N)ccc5F)c4)nc(-c4cncc(C#N)c4)nc3n21
Resp: 0.59

Req: Item: C[C@@H]1CSc2nc3c(NCCc4ccc(O)c(-c5cccc(C#N)c5)c4)nc(-c4cncc(F)c4)nc3n21
Resp: -0.34

Req: Now give it for COc1ccccc1-c1cc(CCNc2nc(-c3cncc(F)c3)nc3c2nc2n3C(C)(C)CO2)ccc1O too.
Resp: 1.00

Req: Now this one: CC1(C)COc2nc3c(NCCc4ccc(O)c(-c5ccc(F)cc5)c4)nc(-c4cncc(F)c4)nc3n21
Resp: 0.70

Req: Field entry: CC1(C)COc2nc3c(NCCc4ccc(O)c(-c5ccccc5Cl)c4)nc(-c4cncc(F)c4)nc3n21
Resp: 1.56

Req: Entry CC1(C)COc2nc3c(NCCc4ccc(O)c(-c5cccc(C#N)c5)c4)nc(-c4cncc(C(F)F)c4)nc3n21 please
Resp: 0.28

Req: Lookup Cc1cncc(-c2nc(NCCc3ccc(O)c(-c4ccccc4F)c3)c3nc4n(c3n2)C(C)(C)CS4)c1
Resp: 0.00

Req: Cool, now Cc1cncc(-c2nc(NCCc3ccc(O)c(-c4cc(C#N)ccc4F)c3)c3nc4n(c3n2)C(C)(C)CO4)c1
Resp: 0.91

Req: Param item: CC1(C)COc2nc3c(NCCc4ccc(O)c(-c5cccc(C#N)c5F)c4)nc(-c4cncc(F)c4)nc3n21
Resp: 0.08

Req: What about C[C@@H]1CSc2nc3c(NCCc4ccc(O)c(-c5cncc(F)c5)c4)nc(-c4cncc(F)c4)nc3n21 ?
Resp: 0.67
